Answer each item with its documented Cmax.
- Assay: Cmax in rat; also: test concentration or dose not given here
- Assay type: ADME, organism-based
- Experimental setup: in vivo
Just the number please, in nM, no unit attached.

Challenge: Bench note: what Cmax did NCCCCN(Cc1ncccc1N)[C@H]1CCCc2cccnc21 show?
Response given: 1660

Challenge: Bench note: what Cmax did Cc1cnc(CN(CCCCN)[C@H]2CCCc3cccnc32)c(C)c1 show?
Response given: 2700

Challenge: Bench note: what Cmax did Cc1cccnc1CN(CCCCN)[C@@H](C)c1ccccn1 show?
Response given: 1580

Challenge: Bench note: what Cmax did C[C@@H](c1ccccn1)N(CCCCN)Cc1nc2ccccc2[nH]1 show?
Response given: 180

Challenge: Bench note: what Cmax did Cc1cccc(CN(CCCCN)[C@H]2CCCc3cccnc32)n1 show?
Response given: 1460
